- run description: Equilibrium solubility in distilled water (UV spectrophotometry)
- Format: physicochemical
- experimental setup: thermodynamic from solid, room temperature
endpoint: solubility (µg/mL)
Answers are plain numbers, in µg/mL.

C#C[C@]1(O)CC[C@H]2[C@@H]3CCC4=C/C(=N/O)CC[C@@H]4[C@H]3CC[C@@]21CC (single isomer, unassigned; isomer d) [E-isomer]; 3.8

Now, please, on to the next molecule.
# return recorded solubility for entry C#C[C@]1(O)CC[C@H]2[C@@H]3CCC4=C/C(=N\O)CC[C@@H]4[C@H]3CC[C@@]21CC (single isomer, unassigned; isomer d) [Z-isomer] 12.1

---

- run description: CHI of six steroids (structure-absorption experiment)
- Assay type: physicochemical
- experimental setup: chromatographical hydrophobicity index, isocratical conditions
Threshold rule: CHI greater than or equal to 50 is True; below that, False.

Use the examples below as a reference point.
CC(=O)[C@H]1CC[C@H]2[C@@H]3CC=C4C[C@@H](O)CC[C@]4(C)[C@H]3CC[C@]12C [Pregnenolone]; True
C[C@]12CCC(=O)C=C1CC[C@@H]1[C@@H]2[C@@H](O)C[C@@]2(C)[C@H]1CC[C@]2(O)C(=O)CO [Hydrocortisone]; False
C[C@]12CC[C@H]3[C@@H](CCC4=CC(=O)CC[C@@]43C)[C@@H]1CC[C@@H]2O [Testosterone]; True

State whether the measured CHI reaches 50, counting equality as reaching it, for C[C@]12CCC(=O)C=C1CC[C@@H]1[C@@H]2CC[C@@]2(C)[C@H]1CC[C@]2(O)C(=O)CO [Cortexolone] True

State whether the measured CHI reaches 50, counting equality as reaching it, for C[C@]12CC[C@@H]3c4ccc(O)cc4CC[C@H]3[C@@H]1C[C@@H](O)[C@@H]2O [Estriol] False
